test system: A498 renal; assay: NCI tumour cell line growth inhibition, 48 h
parameter.measured: TGI

Guide cases for TGI, answers given:
CCOC(=O)C(Cl)(Cl)/S(=N\S(=O)(=O)c1ccccc1)NC(=O)c1ccccc1 (stereo unspecified); > 100 µM
Cn1cc(-c2csc(-c3cn(CCCCN4CCCCC4)c4ccccc34)n2)c2cccnc21; 3 µM
C=C1c2cc3c(cc2CC12Cc1cc4c(cc1C2=O)CCC4)CCC3 (stereo unspecified); > 100 µM

The value of TGI measured for the compound CC(=O)O/N=C/c1c2ccccc2cc2ccccc12 turned out to be > 100 µM

Recorded result, CC(C)=C1CCC(CN(C)C)C1=O (stereo unspecified) , TGI: 36.9 µM

The recorded TGI for CSC(=Nc1ccccc1)N(c1ccccc1)c1nc(=[N+](C)C)ss1 is 27.9 µM

TGI reading for CCNC(=O)/C(=C/c1ccc(OC)cc1)c1cc(OC)c(OC)c(OC)c1 : > 63.8 µM

Lab note: measured TGI of Cc1cc(N/N=C/c2ccccn2)nc2ccccc12 was 7.05 µM

So for O=C(Cc1ccccc1)NN1C(=O)/C(=C\c2ccccc2)SC1=Nc1ccccc1 , the logged TGI turned out to be > 100 µM

Consider N#CC(N=Nc1ccc(Cl)cc1)c1nc2ccccc2o1 (stereo unspecified) . Its measured TGI is > 100 µM

====

test system: SK-OV-3 ovarian; assay: NCI tumour cell line growth inhibition, 48 h
parameter.measured: TGI (µM)
Lab book: enter the figure in µM, no units written.

The examples below pair each entry with its known result.
COc1ccc(/C(C)=C(\c2ccc(OCCN3CCCCCC3)cc2)c2ccc(OC(=O)C3CCCCC3)cc2)cc1; 3.96
Nc1nc(Cl)cc(NCC2(CO)CCC(CCc3ccccc3)C2)n1 (centres undefined); 35.1
S=C(/N=c1\sc(Nc2ccc(Cl)cc2)nc2sc3c(c12)CCN(N1CCc2c(sc4nc(Nc5ccc(Cl)cc5)s/c(=N\C(=S)Nc5ccc(Cl)cc5)c24)C1)C3)Nc1ccc(Cl)cc1; 66.4

Please examine the following record next.
Lookup result for CCOC(=O)c1nc2ccc(C(F)(F)F)cc2nc1Oc1ccc(C#N)cc1 ; measured TGI: 46

====

system: SN12C renal; assay: NCI tumour cell line growth inhibition, 48 h
The following molecules are shown together with reported GI50 values.

Reference set, count: 5
CCc1ccc2c(c1)C(=O)c1c-2n(CCCN=[N+]=[N-])c(=O)c2cc([N+](=O)[O-])ccc12; > 50 µM
COC(=O)c1cc2c(o1)-c1nccc3c1c(nc1ccccc13)C2=O; 4.04 µM
CN(C)C(=S)SSC(=S)N(C)C; 14.7 µM
COc1ccc(-c2nc(-c3cc(OC)cc(OC)c3)[nH]c2-c2ccc(OC)cc2)cc1; > 100 µM
O=C(/C(=C\c1c(-c2ccccc2)[nH]c2ccccc12)S(=O)(=O)c1ccccc1)c1ccccc1; > 100 µM

// sample CC1(C)CN=C(NN=C(/C=C/c2ccc(C(F)(F)F)cc2)/C=C/c2ccc(C(F)(F)F)cc2)NC1 , its GI50 was 1.46 µM

Documented GI50 of CCN(CC)CCCCCCNc1cccc2cc(Br)cnc12 : 5.92 µM

====

system: COLO 205 colon; test: NCI tumour cell line growth inhibition, 48 h
# GI50 annotations

c1ccc2c(c1)[nH]c1c2cc[n+]2cc3c(cc12)CCCC3; 1.9 µM
COc1ccc(-c2nccn2-c2ccc(OC)cc2)cc1; 28.3 µM
CCc1ccc2c(c1)C(=O)c1c-2n(CCCN=[N+]=[N-])c(=O)c2cc([N+](=O)[O-])ccc12; > 50 µM
O=C(c1ccco1)c1c(C(F)(F)F)n([O-])c2ccc(C(F)(F)F)cc2[n+]1=O; 0.468 µM

Note: attention shifts to another entry.
get_value(item= N[C@H](CCC(=O)N[C@@H](Cc1c[nH]c2ccccc12)C(=O)O)C(=O)O , readout=GI50) returns > 100 µM

====

tested on: T-47D breast; test: NCI tumour cell line growth inhibition, 48 h
Catalogue of compounds with associated TGI

NCCCN1CCN(CCCNc2ccc3nnn4c5ccccc5c(=O)c2c34)CC1; > 100 µM
O=C(/C=C/c1ccccc1)c1ccccc1; > 10 µM
CC[n+]1[b-](C(C)(C)C)n(/N=C/C(C)(C)C)[b-](C(C)(C)C)[n+]1CC; > 100 µM
Cc1ccc([N+](=O)[O-])cc1N=NC(=O)NNc1cc([N+](=O)[O-])ccc1C; > 100 µM
O=C(O)c1cc(-c2ccc3c(O)c(O)ccc3c2)ccc1O; > 75 µM
CC(C)c1[nH]nc2c1N=C(c1ccccc1Cl)c1cc([N+](=O)[O-])ccc1N2; > 23 µM
O=C(O)c1cccc(COc2ccc([N+](=O)[O-])cc2Cl)c1; > 100 µM
CCC(C)(O)c1cnc(CC(C)C)c(=O)n1O (stereo unspecified); > 100 µM
CC(=O)c1cccn1/C=C(\OC(=O)OC(C)(C)C)c1ccc[nH]1; > 100 µM
C=C1c2cc3c(cc2CC12Cc1cc4c(cc1C2=O)CCC4)CCC3 (stereo unspecified); > 100 µM

Per the records, this compound ( N/C(=N\S(=O)(=O)c1c(C(F)(F)F)cccc1C(F)(F)F)Nc1ccc(Cl)cc1 ) has TGI equal to > 100 µM

Value of measured TGI for the entry COc1cc2c(cc1OC)[C@H]1CN3CCC[C@H]3C=C1c1ccc(OC)c(O)c1-2 : 0.132 µM

For reference, reported TGI for COC(=O)CCc1cc(OC)c2c(c1)[C@H](C(=O)OC)[C@@H](c1ccc(O)c(OC)c1)O2 stands at > 100 µM

So for COC(=O)c1cc2c(o1)-c1nccc3c1c(nc1ccccc13)C2=O , the logged TGI turned out to be 6.9 µM

Consider COc1ccc(-c2c3c([nH]c(=S)c2C#N)CC(C)(C)CC3=O)cc1 . Its measured TGI is > 100 µM

Looking up Cc1cc(Nc2nc(-c3cn(-c4ccc(Cl)cc4)nn3)nc3ccccc23)n[nH]1 , I see its TGI listed as 42.3 µM

Entry under test: NNC1=N/C(=C\c2ccco2)C(Cl)=N1 . Its TGI was > 100 µM

====

system: PC-3 prostate; assay: NCI tumour cell line growth inhibition, 48 h
Measured TGI values are reported for all entries that follow.
Dear colleague, please return just the value in µM, with no unit written.

Example results:
C#CCOc1cccc(Nc2ncnc3c(NC(=O)C=C)cccc23)c1; 67.1
c1coc(-c2c3ccc(=[N+]4CCCCC4)cc-3oc3cc(N4CCCCC4)ccc23)c1; 1.06

Now take the following compound into account.
Reported TGI for CCN(CC)CCCCCCNc1cccc2cc(Br)cnc12 was 17

====

test system: SNB-78 CNS; assay: NCI tumour cell line growth inhibition, 48 h
Quick reference for TGI among some compounds

COc1c(O)c2c3c(c(C)cc(O)c3c1O)C(=O)C(O)(C(C)(C)C(C)=O)C2=O (stereo not drawn); > 100 µM

// sample Nc1ccccc1C(=O)/C=C/c1c(O)ccc2ccccc12 , its TGI was > 100 µM

get_value(item= Nc1nc(-c2ccc(Cl)c([N+](=O)[O-])c2)cs1 , readout=TGI) returns > 100 µM

Data point: NC(=O)C(=O)CC(=O)c1ccccc1NC1=CC(=O)C(=O)c2ccccc21 ; TGI = > 100 µM

====

Listing of entries alongside the reported log10(TGI).
test system: KM12 colon; experiment: NCI tumour cell line growth inhibition, 48 h
Use the decimal logarithm of TGI (µM).

Completed entries (count: 5):
COC(C)(C)[C@@H](O)[C@H]1C[C@H](C)[C@@]2(CC[C@]3(C)[C@@H]2CC[C@@H]2[C@@]4(C)CC[C@@H](OC(C)=O)C(C)(C)[C@@H]4C[C@@H](OC4OC(COC(C)=O)C(O)C(O)C4O)[C@]23C)O1 (stereo partly drawn); 0.56
CC(C)CCC[C@@H](C)C1CCC2[C@@H]3CC=C4C[C@@H](C(=O)NCCN(C)C)CC[C@]4(C)C3CC[C@@]21C (stereo partly drawn); 1.45
C(/C=C(\Nc1ccccc1)C12CC3CC(CC(C3)C1)C2)=Nc1ccccc1; 1.55
CC1CC(O)C(=O)C(O[C@@H]2C[C@@H]3CC[C@@H]4[C@H](CC[C@]5(C)C(C6=CC(=O)OC6)CC[C@]45O)[C@@]3(C=O)C[C@H]2O)O1 (stereo partly drawn); -0.36
Cc1ccccc1C1=[N+]([O-])c2ccc(Cl)cc2C1=O; 1.43

// next item, log10(TGI) requested
The reported value for CC(O)CCCOC(c1ccccc1)(c1ccccc1)c1ccccc1 (stereo not drawn) in terms of log10(TGI) is 1.44

====

test system: PC-3 prostate; test: NCI tumour cell line growth inhibition, 48 h
Entries annotated with measured TGI
Note: unit µM is implicit; provide only the numeric part.

Study these solved cases before continuing.
COc1cc2c(Nc3cc(Cl)c(OC)c(Cl)c3)c(C#N)cnc2cc1OCCCN1CCN(C)CC1; 20.6
Cc1cn(-c2cc(C(=O)Nc3cccc(-n4ccc5c(NC(=O)c6ccccc6)nccc54)c3)cc(C(F)(F)F)c2)cn1; 15.6
ClC(Cl)=C1C(=C(Cl)Cl)C(Cl)(Cl)C1(Cl)Cl; 5.08

// below: TGI requested for another compound
Data point: O=C(NCc1ccc(Cn2c(=O)sn(-c3ccccc3)c2=O)cc1)OCc1ccc2cccc(O)c2n1 ; TGI = 2.42
